Hello, the source for this data is PubChem BioAssay (NCI), in case you need it.

- PROTOCOL: NCI Yeast Anticancer Drug Screen. Data for the bub3 strain (AID 167)
- MEASUREMENT CONDITIONS: S. cerevisiae bub3 mutant strain, at 50.0 µM, active compounds read high
About 79,000 compounds went through this panel and 15% of them were active in at least one assay; those are over-represented in the sample as a whole. Active and inactive are the calls of the source. Cut-off read from the data, not from the text of the source: active = growth inhibition above about 70%; inactive = the rest.
QUANTITY NAME: growth inhibition

Worked set:
Return reported growth inhibition; argument: O=C(Cl)c1cc(Cl)cc(Cl)c1Br
15.9% (inactive)

Okay, and CCOC(=O)CC(CSCP(=O)(OCC)OCC)C(=O)OCC (configuration not stated) ?
9.55% (inactive)

Record: CC1(C(=O)O)CCCC1C(=O)O (configuration not stated)
-1.25% (inactive)

---
Consider the molecule CC(C)C1CC(N(C)C)=CC(=O)N1 (configuration not stated) and give its measured growth inhibition.
10.8% (inactive)

Okay, and c1ccc(CCc2ccnc3ccccc23)cc1 ?
9.15% (inactive)

Another molecule to look at: O=S(=O)(O)c1ccc(S)cc1
-31% (inactive)

Another: c1ccc(Sc2nc(Sc3ccccc3)nc(Sc3ccccc3)n2)cc1
-20.1% (inactive)

Next up: CCOC(=O)c1cnc(SC)nc1Nc1ccc(OC)cc1
21.2% (inactive)
